biological target: P. falciparum enolase (Pf enolase) (Plasmodium falciparum, UniProt Q8IJN7); construct: recombinant full-length Plasmodium enolase, expressed in E. coli, His-tag-thioredoxin removed by TEV protease; assay: ITC with purified enzyme (n = […], ΔG −[…] Kcal/mol, Kd not given); IC50 from enzyme inhibition assay
Sequence (Q8IJN7 whole entry): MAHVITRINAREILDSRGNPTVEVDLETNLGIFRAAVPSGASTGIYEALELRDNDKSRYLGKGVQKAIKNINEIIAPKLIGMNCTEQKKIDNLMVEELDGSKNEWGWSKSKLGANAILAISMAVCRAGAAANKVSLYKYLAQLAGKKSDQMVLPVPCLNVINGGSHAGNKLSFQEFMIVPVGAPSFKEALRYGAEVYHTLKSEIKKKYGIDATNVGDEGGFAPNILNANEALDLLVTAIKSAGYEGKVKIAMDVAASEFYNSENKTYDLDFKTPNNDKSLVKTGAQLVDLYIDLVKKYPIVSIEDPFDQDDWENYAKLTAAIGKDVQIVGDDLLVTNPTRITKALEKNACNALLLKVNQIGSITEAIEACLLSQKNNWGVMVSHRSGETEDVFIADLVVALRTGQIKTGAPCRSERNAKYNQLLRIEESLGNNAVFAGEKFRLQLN

- structure.as.smiles: "C=CC1=C(C)/C(=C/C2=NC(=C\\c3[nH]c(/C=C4\\NC(=O)C(C)=C4C=C)c(C)c3CCC(=O)O)/C(CCC(=O)O)=C2C)NC1=O"
  system: "P. falciparum enolase (Pf enolase) (Plasmodium falciparum, UniProt Q8IJN7)"
  output.unit: "µM"
  IC50: 27
